The entries below are paired with their reported IC50.
TARGET ENTITY: T1, TSLP-His (human, UniProt Q969D9 29-159, limits assumed)
T1 construct: also called his-tagged TSLP; not shown: His-tag
T1 sequence (Q969D9 29-159 R127A/R130S limits assumed): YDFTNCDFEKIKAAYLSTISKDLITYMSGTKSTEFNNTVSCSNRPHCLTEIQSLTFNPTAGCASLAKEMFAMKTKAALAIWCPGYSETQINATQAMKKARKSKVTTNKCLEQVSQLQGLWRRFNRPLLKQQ
PROCEDURE SUMMARY: HTRF competition: blocking of TSLP-his binding to HEK293-Flag-hTSLPR-IL7Ra cells, IgG1

BINDER	UNIT INFO	IC50
TSLP-0204 (antibody, V domains shown) VH: QVQLVQSGAEVKKPGSSVKVSCKASGFTFGSYGINWVRQAPGQGLEWLGVIVPLVGVTIYAEKFQGRVTITADTSTSTAYMELSSLRSEDTAVYYCARGQEYFYWYFDLWGQGTLVTVSS VL: QSALTQPPSASGSPGQSVTISCTGTSSDIGGYNRVSWYQQHPGKAPKLMIYEVNKRSSGVPDRFSGSKSGNTASLTVSGLQAEDEADYYCTSYAGTDTFVLFGGGTKLTVL	µg/mL	0.428
TSLP-0202 (antibody, V domains shown, also called TSLP-0202-IgG1) VH: QVQLVQSGAEVKKPGSSVKVSCKASGFTFGSYGINWVRQAPGQGLEWMGVIVPLVGVTIYAEKFQGRVTITADESTSTAYMELSSLRSEDTAVYYCARGQEYFYWYFDLWGQGTLVTVSS VL: QSALTQPPSASGSPGQSVTISCSGSSSDIGGYNRVSWYQQHPGKAPKLMIYDVSKRPSGVPDRFSGSKSGNTASLTVSGLQAEDEADYYCSSYAGTDTFILFGGGTKLTVL	µg/mL	0.297

All figures here come from patent US20250277022A1.
